- experimental.system: dopamine D2 receptor (Homo sapiens, UniProt P14416)
- Sequence (P14416 whole entry, species assumed): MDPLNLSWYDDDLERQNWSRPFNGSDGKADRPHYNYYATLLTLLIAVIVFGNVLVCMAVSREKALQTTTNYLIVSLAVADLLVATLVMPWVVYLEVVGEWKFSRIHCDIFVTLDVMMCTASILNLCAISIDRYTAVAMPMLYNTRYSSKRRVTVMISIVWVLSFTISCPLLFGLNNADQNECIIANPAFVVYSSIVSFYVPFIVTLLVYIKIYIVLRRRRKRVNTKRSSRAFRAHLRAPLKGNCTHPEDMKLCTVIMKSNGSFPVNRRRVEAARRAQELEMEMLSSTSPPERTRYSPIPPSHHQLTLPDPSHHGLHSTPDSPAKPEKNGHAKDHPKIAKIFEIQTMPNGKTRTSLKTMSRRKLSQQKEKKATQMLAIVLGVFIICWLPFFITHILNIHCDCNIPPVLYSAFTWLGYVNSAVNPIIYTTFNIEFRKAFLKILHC
- test.description: Dopamine receptor competitive binding, D2
- applied.conditions: tested at 1 × 10^−5 mol/L
parameter.measured: inhibition at 10 µM

• COc1cc2c(cc1O)C1Cc3c(Cl)cc(OC)c(OCCO)c3CN1CC2 (stereo not shown) [Example 17] = 57.4%
• Oc1cc2c(cc1O)C1Cc3c(Cl)cc(O)c(O)c3CN1CC2 (stereo not shown) [Example 44] = 93.3%
• COc1cc2c(cc1OCc1ccccc1)C1Cc3c(Cl)cc(OC)c(OC(=O)[C@@H](N)Cc4ccccc4)c3CN1CC2 (stereo partly shown) [Example 23] = 44%
• COc1cc2c(cc1OC(C)=O)C1Cc3c(Cl)cc(OC)c(OC(C)=O)c3CN1CC2 (single isomer, unassigned; (-)) [Example 47] = 77.4%
